biological target: T1, mouse vascular endothelial growth factor receptor-2 Fc chimera (Flk-1-Fc) (mouse, UniProt P35918 20-762); assay: radioactive equilibrium binding assay, 1 nM Flk-1-Fc, % of input bound
T1 construct: Bought from R&D Systems; also called mouse VEGFR-2; not shown: Fc part of the purchased chimera, not specified
T1 sequence (P35918 20-762, change not shown): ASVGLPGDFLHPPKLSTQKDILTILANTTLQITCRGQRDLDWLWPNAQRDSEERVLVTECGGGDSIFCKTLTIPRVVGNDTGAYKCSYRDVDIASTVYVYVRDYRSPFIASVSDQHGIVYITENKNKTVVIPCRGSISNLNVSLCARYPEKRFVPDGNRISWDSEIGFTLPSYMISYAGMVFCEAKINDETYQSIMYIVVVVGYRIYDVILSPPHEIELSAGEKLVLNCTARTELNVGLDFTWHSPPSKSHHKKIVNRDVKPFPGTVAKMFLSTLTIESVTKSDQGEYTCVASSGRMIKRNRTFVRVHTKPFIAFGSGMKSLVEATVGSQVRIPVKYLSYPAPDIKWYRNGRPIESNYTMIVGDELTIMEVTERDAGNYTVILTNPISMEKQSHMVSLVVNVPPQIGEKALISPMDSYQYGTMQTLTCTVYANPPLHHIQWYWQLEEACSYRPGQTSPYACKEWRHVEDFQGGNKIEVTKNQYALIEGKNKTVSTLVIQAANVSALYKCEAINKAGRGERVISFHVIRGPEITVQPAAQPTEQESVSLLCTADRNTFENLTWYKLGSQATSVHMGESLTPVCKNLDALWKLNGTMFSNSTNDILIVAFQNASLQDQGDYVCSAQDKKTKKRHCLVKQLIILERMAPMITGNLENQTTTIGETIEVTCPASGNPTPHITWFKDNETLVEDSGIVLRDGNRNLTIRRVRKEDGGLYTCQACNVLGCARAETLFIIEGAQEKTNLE
Endpoint label: Binding to 1 nM Flk-1, % (%)
Provide only the numeric value, understood in %.

The following binders have reported results that may help.
{"Binder": "D11 (designed binder, 10Fn3 clone, Del 1-8) EVVAATPTSLLISWRHPHFPTRYYRITYGETGGNSPVQEFTVPLQPPTATISGLKPGVDYTITGYAVTVERNGHKLFTPISINYRT", "Binding to 1 nM Flk-1, % (%)": 3}
{"Binder": "B12 (designed binder, 10Fn3 clone, Del 1-8) EVVAATPTSLLISWRHPHFPTRYYRITYGETGGNSPVQEFTVPLQPPTATISGLKPGVDYTITGYAVTVERNGRELRTPISINYRT", "Binding to 1 nM Flk-1, % (%)": 24}

# evaluate next
Request: Quick check: Binding to 1 nM Flk-1, % of D4 (designed binder, 10Fn3 clone, Del 1-8) EVVAATPTSLLISWRHPHFPTRYYRITYGETGGNSPVQEFTVPLQPPTATISGLKPGVDYTITGYAVTVERNGRTLFTPISINYRT ?
Response: 44
